The following compounds are shown together with reported Inhibition values.
# experimental_target: Cytochrome P450 3A4 (Homo sapiens, UniProt P08684)
# Sequence (P08684 whole entry): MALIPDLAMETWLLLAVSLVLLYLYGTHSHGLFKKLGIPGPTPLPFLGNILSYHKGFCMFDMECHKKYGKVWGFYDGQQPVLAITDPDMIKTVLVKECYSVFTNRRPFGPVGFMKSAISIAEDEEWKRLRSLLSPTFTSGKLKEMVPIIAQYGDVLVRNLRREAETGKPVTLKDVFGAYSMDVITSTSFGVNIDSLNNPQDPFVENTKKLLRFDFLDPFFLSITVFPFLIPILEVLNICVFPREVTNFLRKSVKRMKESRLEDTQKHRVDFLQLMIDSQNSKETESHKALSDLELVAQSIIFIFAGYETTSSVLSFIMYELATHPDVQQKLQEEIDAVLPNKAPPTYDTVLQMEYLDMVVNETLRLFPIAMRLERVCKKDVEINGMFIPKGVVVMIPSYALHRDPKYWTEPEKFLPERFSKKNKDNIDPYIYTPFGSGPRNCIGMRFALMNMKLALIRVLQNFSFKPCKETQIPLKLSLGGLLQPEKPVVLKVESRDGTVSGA
# assay: Inhibitory activity against cytochrome P450 3A4
# Assay type: ADME
# Design: concentration or dose not given beside the values
Numbers only; they are read as %.

CCc1nc(-c2cccc(C)c2)c(-c2ccnc(NCCCc3ccccc3)c2)s1 17.9
Cc1cccc(-c2nc(-c3ccc(S(C)(=O)=O)cc3)sc2-c2ccnc(NC(=O)Cc3ccccc3)c2)c1 6.8
CCc1nc(-c2cccc(C)c2)c(-c2ccnc(NC(C)=O)c2)s1 17.2
CCCC(=O)Nc1cc(-c2sc(CC)nc2-c2cccc(C)c2)ccn1 16.9
CCc1nc(-c2cccc(Cl)c2)c(-c2ccnc(NC(=O)c3ccccc3)c2)s1 8.2
CCc1nc(-c2cccc(C(F)(F)F)c2)c(-c2ccnc(NC(=O)c3ccccc3)c2)s1 10.3
Cc1cccc(-c2nc(-c3ccc(S(C)(=O)=O)cc3)sc2-c2ccnc(NCCc3ccccc3)c2)c1 12
Cc1cccc(-c2nc(-c3ccc(S(C)(=O)=O)cc3)sc2-c2ccnc(C)c2)c1 -1.7
CCc1nc(-c2cccc(C)c2)c(-c2ccnc(N3CCCC3)c2)s1 21.9
CCc1nc(-c2cccc(C)c2)c(-c2ccnc(NC(=O)Cc3ccccc3)c2)s1 7.2

# input compound: CCc1nc(-c2ccccc2)c(-c2ccnc(NC(=O)c3ccccc3)c2)s1 ; wanted: its Inhibition
-12.5

# input compound: CCC(=O)Nc1cc(-c2sc(CC)nc2-c2cccc(C)c2)ccn1 ; wanted: its Inhibition
13

----------
The following compounds are shown together with reported Inhibition values.
# experimental_target: Cytochrome P450 3A4 (Homo sapiens, UniProt P08684)
# assay: Inhibitory activity against cytochrome P450 3A4
# Format: ADME
# Design: concentration or dose not given beside the values
Numbers only; they are read as %.

compound	experimental_target	Inhibition [%]
CCc1nc(-c2ccc(F)cc2)c(-c2ccnc(NC(=O)c3ccccc3)c2)s1	Cytochrome P450 3A4 (Homo sapiens, UniProt P08684)	2.4
CCc1nc(-c2cccc(C)c2)c(-c2ccncc2)s1	Cytochrome P450 3A4 (Homo sapiens, UniProt P08684)	48.5
CCc1nc(-c2cccc(C)c2)c(-c2ccnc(NC3CCCC3)c2)s1	Cytochrome P450 3A4 (Homo sapiens, UniProt P08684)	15.9
CCc1nc(-c2cccc(C)c2)c(-c2ccnc(NC(=O)CCc3ccccc3)c2)s1	Cytochrome P450 3A4 (Homo sapiens, UniProt P08684)	12.9
CCc1nc(-c2cccc(C)c2)c(-c2ccnc(NC(=O)C3CCCCC3)c2)s1	Cytochrome P450 3A4 (Homo sapiens, UniProt P08684)	-4.3
Cc1cccc(-c2nc(-c3ccc(S(C)(=O)=O)cc3)sc2-c2ccncc2)c1	Cytochrome P450 3A4 (Homo sapiens, UniProt P08684)	25
CCc1nc(-c2cccc(C)c2)c(-c2ccnc(NC(=O)c3ccccc3)c2)s1 [TAK-715]	Cytochrome P450 3A4 (Homo sapiens, UniProt P08684)	4.3
CCc1nc(-c2cccc(C)c2)c(-c2ccnc(Cl)c2)s1	Cytochrome P450 3A4 (Homo sapiens, UniProt P08684)	1.2

Notebook entry, Cytochrome P450 3A4 (Homo sapiens, UniProt P08684) assay: Inhibition of Cc1cccc(-c2nc(-c3ccc(S(C)(=O)=O)cc3)sc2-c2ccnc(NC(=O)c3ccccc3)c2)c1 = ?
5.7

Notebook entry, Cytochrome P450 3A4 (Homo sapiens, UniProt P08684) assay: Inhibition of CCc1nc(-c2cccc(C)c2)c(-c2ccnc(C)c2)s1 = ?
24
